# assay summary: in vivo
# settings: rat

compound	bioavailability
CC(=O)O[C@H]1C(=O)[C@@]2(C)[C@H]([C@H](OC(=O)c3ccccc3)[C@]3(O)C[C@H](OC(=O)[C@H](O)[C@@H](NC(=O)c4ccccc4)c4ccccc4)C(C)=C1C3(C)C)[C@]1(OC(C)=O)CO[C@@H]1C[C@@H]2O [(e), paclitaxel]	0.7%
